Origin of measurements: patent US20230287125A1

biological target: T1, human PD-L1-his tag protein (human, UniProt Q9NZQ7 19-238); assay: SPR (Biacore T200), mAb captured on Protein A chip, PD-L1-his injected
T1 construct: also called human PD-L1-His protein; recombinant PD-L1 protein; not shown: his tag
T1 sequence (Q9NZQ7 19-238 limits assumed): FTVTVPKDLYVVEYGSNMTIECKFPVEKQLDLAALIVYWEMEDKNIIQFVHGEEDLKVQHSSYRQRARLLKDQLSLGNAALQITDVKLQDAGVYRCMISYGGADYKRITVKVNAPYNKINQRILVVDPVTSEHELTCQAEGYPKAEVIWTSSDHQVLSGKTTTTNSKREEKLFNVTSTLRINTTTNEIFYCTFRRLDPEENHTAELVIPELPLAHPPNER

{"BINDER": "Hu89C10H8-12 (antibody, V domains shown, humanized) VH: EVQLVESGGGLVKPGGSLRLSCAASGFTFSNYWMTWIRQAPGKGLEWVASITNTGSSTFYPDSVKGRFTISRDNAKSSLYLQMNSLRAEDTAVYYCTRDTTIAPFDYWGQGTMVTVSS VL: DIQMTQSPSSLSASVGDRVTITCKASQNLNEYLNWYQQKPGKAPKRLIYKTNTLQAGIPSRFSGSGSGIDYTLTISSLQPEDFATYYCSQYNSGNTFGQGTKLEIK", "READOUT_UNITS": "s⁻¹", "koff": "5.59e-05"}
{"BINDER": "Hu67F3G7-5 (antibody, V domains shown, humanized) VH: EVQLVQSGAEVKKPGASVKVSCKASGYIFTDFWVSWVRQAPGKGLEWIGEIYPNSGVSRYNEKFKGRVTMTVDKSISTAYMELSRLRSDDTAVYYCTKYFGYTYWFGYWGQGTLVTVSS VL: DIQMTQSPSSLSASVGDRVTITCRASKSVSTYMHWYQQKPGKAPKLLIYSASHLESGVPSRFSGSGSGTDFTLTISSLQPEDFATYYCQQSNELPVTFGGGTKVEIK", "READOUT_UNITS": "s⁻¹", "koff": "7.92e-05"}
